# Tested on: HL-60
# experiment.summary: NCI tumour cell line growth inhibition, 48 h
The source made the active and inactive calls. Cut-off read from the data, not from the text of the source: active = GI50 up to about 1.1 µM and inactive = higher.
Outcome codes: T for active, F for inactive

[
  {
    "molecule": "CN1CC(c2ccccc2)C(O)(C2(c3ccccc3)CN(C)CC(c3ccccc3)C2=O)C(c2ccccc2)C1 (stereo unspecified)",
    "assigned.class": "F"
  },
  {
    "molecule": "O=C(c1cc2c(C(F)(F)F)onc2c2ccccc12)C(F)(F)F",
    "assigned.class": "T"
  },
  {
    "molecule": "Cc1cnc(-c2ccccc2)o1",
    "assigned.class": "F"
  },
  {
    "molecule": "N#Cc1cccc(C2SCc3nc4ccccc4n32)c1 (stereo unspecified)",
    "assigned.class": "F"
  },
  {
    "molecule": "O=C1c2ccccc2-c2ccccc2C(=O)C1(Br)Br",
    "assigned.class": "F"
  },
  {
    "molecule": "O=C(OC[C@H]1C[C@H]2C(=O)OCCC[C@H]2O1)c1ccccc1",
    "assigned.class": "F"
  }
]
